These data points were gathered from paper PMC8704606.

For each record, write down the corresponding MRT last.
Assay: Pharmacokinetics and metabolism after iv and po administration
Assay type: in vivo
Conditions: male, C57/BL6, mouse, plasma; po 50 mg/kg, parent drug; read-out: MRT0-last
Method: The plasma concentration-time profiles of the parent compounds and metabolites after administration iv and po to male C57/BL6 mice are presented in Figure 2, Figure 3 and Figure 4. Artemiside was quantifiable up to 24 h in all mice dosed iv and up to 7 h po (lower limit of quantitation LLOQ = 1.6 ng/mL or 0.004 μM) (Figure 2). […] For both artemiside and artemisox, the metabolite artemisone was quantifiable up to 3 h in both the po and iv groups (Figure 2 and Figure 3). […]
Give the quantity in min, number only.

INPUT: What value of measured MRT last is listed for `C[C@H]1[C@H](N2CC[S+]([O-])CC2)O[C@@H]2O[C@@]3(C)CC[C@H]4[C@H](C)CC[C@@H]1[C@@]24OO3` ?
OUTPUT: 41.4

INPUT: Also check `C[C@H]1[C@H](N2CCS(=O)(=O)CC2)O[C@@H]2O[C@@]3(C)CC[C@H]4[C@H](C)CC[C@@H]1[C@@]24OO3`
OUTPUT: 32.4

INPUT: Also check C[C@H]1[C@H](N2CCSCC2)O[C@@H]2O[C@@]3(C)CC[C@H]4[C@H](C)CC[C@@H]1[C@@]24OO3 [Artemiside 5, Artemiside]
OUTPUT: 114
